Origin of the recorded values: patent US8481042B2

# System: MDA-A1 cells
# PROTOCOL_SUMMARY: Inhibition of the proliferation of MDA-A1 cells by compounds of formula IA (14C-thymidine pulse at 96 h)
# Assay type: cell-based
# EXPERIMENTAL_CONDITIONS: MDA-A1, 3 days culture, 14C-thymidine incorporation at 96 h
pIC50: −log10 of the molar value.
Catalogue of pIC50 readings, one per entry.
MEASURE_NAME: pIC50

>>> measurement("C/C=C1\\C[C@H]2C=Nc3cc(OCc4cc(OCCN(C)CC(C)(C)SCC(=O)NCCOCCOCCOCCOCCC(=O)OC)cc(COc5cc6c(cc5OC)C(=O)N5C/C(=C/C)C[C@H]5C=N6)n4)c(OC)cc3C(=O)N2C1")
8.70
>>> measurement("C/C=C1\\C[C@H]2C=Nc3cc(OCc4cc(OCCN(C)CC(C)(C)SCC(=O)N(C)CCOCCOCCOCCOCCC(=O)OC)cc(COc5cc6c(cc5OC)C(=O)N5C/C(=C/C)C[C@H]5C=N6)n4)c(OC)cc3C(=O)N2C1")
8.65
